Below: a set of entries, each annotated with reported Activity.
- tested.on: Neuropeptide Y receptor type 1 (Homo sapiens)
- Sequence (whole entry): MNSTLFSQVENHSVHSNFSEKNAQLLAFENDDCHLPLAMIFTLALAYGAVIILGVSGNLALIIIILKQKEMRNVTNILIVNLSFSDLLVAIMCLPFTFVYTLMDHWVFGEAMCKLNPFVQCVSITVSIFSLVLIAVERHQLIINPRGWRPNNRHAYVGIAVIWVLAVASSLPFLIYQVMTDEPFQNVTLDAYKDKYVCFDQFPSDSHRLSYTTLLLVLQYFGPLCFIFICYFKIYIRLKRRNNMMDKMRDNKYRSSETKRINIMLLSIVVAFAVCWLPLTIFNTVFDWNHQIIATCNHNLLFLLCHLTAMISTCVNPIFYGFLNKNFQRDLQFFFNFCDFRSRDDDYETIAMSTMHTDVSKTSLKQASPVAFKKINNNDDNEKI
- test.description: Displacement of [3H]NPY from neuropeptide Y1 receptor in human SK-N-MC cells at 10 ug/ml after 60 mins by scintillation counting
- Format: cell-based
property.measured: Activity (%)

>>> quantitative_result("CC(C)C[C@H]1NC(=O)[C@@H](Cc2ccccc2)NC(=O)[C@@H](CC(C)C)NC(=O)[C@H](NC(=O)[C@@H](Cc2ccccc2)NC(=O)C(C)C)[C@H](C)OC(=O)[C@H](CO)NC(=O)[C@@H]([C@H](C)O)NC1=O")
100
>>> quantitative_result("CN(C)CCc1c[nH]c2ccc(Br)cc12")
100
>>> quantitative_result("Nc1ncc(C2=CCNC(=O)c3[nH]c(Br)c(Br)c32)[nH]1")
100
>>> quantitative_result("O=C1C[C@H]2S[C@H]3C[C@]2(C=C1Br)C1=C(N3)C(=O)c2[nH]cc3c2C1=NCC3")
90
>>> quantitative_result("CC/C=C/C(CC)CCC[C@@]1(CC)C[C@H](CC)[C@H](CC(=O)OC)OO1 (stereo partly drawn)")
100
>>> quantitative_result("CC(=O)OC(C)C(OC(C)=O)C(CCCCCCCCCCCCC1=CC(C)OC1=O)C(=O)O (stereo not drawn)")
100
>>> quantitative_result("N=C(NCCCCCCNC(=N)NC(=N)Nc1ccc(Cl)cc1)NC(=N)Nc1ccc(Cl)cc1")
100
>>> quantitative_result("Nc1nc([C@H]2[C@H](CNC(=O)c3cc(Br)c[nH]3)[C@@H](CNC(=O)c3cc(Br)c[nH]3)[C@@H]2c2c[nH]c(N)n2)c[nH]1")
95
